System: 786-0
Assay: Growth inhibition of human 786-0 cells after 48 hrs by sulforhodamine B assay
Assay type: functional
Conditions: 786-0, 48 h
Checkbox rule: GI50 lower than 20 µM = 1 (yes); GI50 not lower than 20 µM = 0 (no).

>  <Smiles Input>
O=[N+]([O-])c1cccc(-c2nc(-c3n[nH]c(=S)o3)cc3c2[nH]c2ccccc23)c1

>  <Class Assignment>
0 (no)

$$$$
>  <Smiles Input>
CSc1nnc(-c2cc3c([nH]c4ccccc43)c(-c3cccc([N+](=O)[O-])c3)n2)o1

>  <Class Assignment>
0 (no)

$$$$
>  <Smiles Input>
Oc1ccc(-c2nc(-c3n[nH]c(=S)o3)cc3c2[nH]c2ccccc23)cc1

>  <Class Assignment>
0 (no)

$$$$
>  <Smiles Input>
CSc1nnc(-c2cc3c([nH]c4ccccc43)c(-c3ccccc3Cl)n2)n1N

>  <Class Assignment>
1 (yes)

$$$$
>  <Smiles Input>
CN(C)c1ccc(-c2nc(-c3n[nH]c(=S)o3)cc3c2[nH]c2ccccc23)cc1

>  <Class Assignment>
1 (yes)

$$$$
>  <Smiles Input>
COc1ccc(-c2nc(-c3n[nH]c(=S)[nH]3)cc3c2[nH]c2ccccc23)cc1

>  <Class Assignment>
1 (yes)

$$$$

----------
Tested on: OVCAR
Assay: Growth inhibition of human OVCAR cells after 48 hrs by sulforhodamine B assay
Format: functional
Recorded Endpoint: log10(LC50 (concentration killing 50% of the cells, NCI protocol)) (log10 of the value in µM)

>  <Smiles Input>
CSc1nnc(-c2cc3c([nH]c4ccccc43)c(-c3ccc(O)cc3)n2)o1

>  <Result>
2.00

$$$$
>  <Smiles Input>
CSc1nnc(-c2cc3c([nH]c4ccccc43)c(-c3ccccc3)n2)o1

>  <Result>
0.20

$$$$
>  <Smiles Input>
CSc1nnc(-c2cc3c([nH]c4ccccc43)c(-c3ccccc3Cl)n2)o1

>  <Result>
1.00

$$$$
>  <Smiles Input>
Nn1c(-c2cc3c([nH]c4ccccc43)c(-c3ccccc3)n2)n[nH]c1=S

>  <Result>
1.72

$$$$
>  <Smiles Input>
CN(C)c1ccc(-c2nc(-c3n[nH]c(=S)[nH]3)cc3c2[nH]c2ccccc23)cc1

>  <Result>
1.68

$$$$

----------
Test system: K562
Assay: Growth inhibition of human K-562 cells after 48 hrs by sulforhodamine B assay
Format: functional
Conditions: K562, 48 h
Recorded Endpoint: TGI (µM)

>  <Smiles Input>
O=[N+]([O-])c1cccc(-c2nc(-c3n[nH]c(=S)o3)cc3c2[nH]c2ccccc23)c1

>  <Assayed Target>
K562

>  <Comparison Symbol>
=

>  <Result>
86.7

$$$$
>  <Smiles Input>
Nn1c(-c2cc3c([nH]c4ccccc43)c(-c3ccc(O)cc3)n2)n[nH]c1=S

>  <Assayed Target>
K562

>  <Comparison Symbol>
>

>  <Result>
100

$$$$
>  <Smiles Input>
COc1cc(-c2nc(-c3nnc(SC)o3)cc3c2[nH]c2ccccc23)ccc1O

>  <Assayed Target>
K562

>  <Comparison Symbol>
>

>  <Result>
100

$$$$
>  <Smiles Input>
Oc1ccc(-c2nc(-c3n[nH]c(=S)o3)cc3c2[nH]c2ccccc23)cc1

>  <Assayed Target>
K562

>  <Comparison Symbol>
=

>  <Result>
87

$$$$
>  <Smiles Input>
CSc1nnc(-c2cc3c([nH]c4ccccc43)c(-c3cccc([N+](=O)[O-])c3)n2)o1

>  <Assayed Target>
K562

>  <Comparison Symbol>
=

>  <Result>
81.5

$$$$
>  <Smiles Input>
Nn1c(-c2cc3c([nH]c4ccccc43)c(-c3ccccc3Cl)n2)n[nH]c1=S

>  <Assayed Target>
K562

>  <Comparison Symbol>
>

>  <Result>
100

$$$$
>  <Smiles Input>
CSc1nnc(-c2cc3c([nH]c4ccccc43)c(-c3ccccc3Cl)n2)n1N

>  <Assayed Target>
K562

>  <Comparison Symbol>
>

>  <Result>
100

$$$$
>  <Smiles Input>
COc1ccc(-c2nc(-c3nnc(SC)o3)cc3c2[nH]c2ccccc23)cc1

>  <Assayed Target>
K562

>  <Comparison Symbol>
>

>  <Result>
100

$$$$
>  <Smiles Input>
CSc1nnc(-c2cc3c([nH]c4ccccc43)c(-c3ccccc3Cl)n2)o1

>  <Assayed Target>
K562

>  <Comparison Symbol>
=

>  <Result>
68.4

$$$$
